tested on: 242566-281-R-J2-PDC complex spheroid viability; assay: Anticancer human tumor 242566-281-R-J2-PDC patient-derived pancreatic carcinoma cell line growth inhibition [RAS]; conditions: curve of first compound; second compound 0.00316 µM;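 further: spheroids exposed to compound for 7 days before readout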
IC50 for assorted molecules
PARAMETER: IC50

MOLECULE	TEST_TARGET	PARAMETER	REPORTED_RESULT
CCN1CCN(Cc2ccc(Nc3ncc(F)c(-c4cc(F)c5nc(C)n(C(C)C)c5c4)n3)nc2)CC1 + C=CC(=O)N1CCN(c2nc(OCC3CCCN3C)nc3c(F)c(-c4nc(N)cc(C)c4C(F)(F)F)c(Cl)cc23)C(C)C1	242566-281-R-J2-PDC complex spheroid viability	IC50	> 1000 nM
Nc1ccn(C2OC(CO)C(O)C2(F)F)c(=O)n1 (stereo not given) + C=CC(=O)N1CCN(c2nc(OCC3CCCN3C)nc3c(F)c(-c4nc(N)cc(C)c4C(F)(F)F)c(Cl)cc23)C(C)C1	242566-281-R-J2-PDC complex spheroid viability	IC50	108 nM
CC(C)n1nc(-c2ccc3oc(N)nc3c2)c2c(N)ncnc21 + C=CC(=O)N1CCN(c2nc(OCC3CCCN3C)nc3c(F)c(-c4nc(N)cc(C)c4C(F)(F)F)c(Cl)cc23)C(C)C1	242566-281-R-J2-PDC complex spheroid viability	IC50	> 100 nM
C=CC(=O)Nc1cc(Nc2nccc(-c3cn(C)c4ccccc34)n2)c(OC)cc1N(C)CCN(C)C + C=CC(=O)N1CCN(c2nc(OCC3CCCN3C)nc3c(F)c(-c4nc(N)cc(C)c4C(F)(F)F)c(Cl)cc23)C(C)C1	242566-281-R-J2-PDC complex spheroid viability	IC50	> 1000 nM
C[C@@H](NC(=O)c1ncnc(N)c1Cl)c1ncc(C(=O)Nc2cc(C(F)(F)F)c(Cl)cn2)s1 + C=CC(=O)N1CCN(c2nc(OCC3CCCN3C)nc3c(F)c(-c4nc(N)cc(C)c4C(F)(F)F)c(Cl)cc23)C(C)C1	242566-281-R-J2-PDC complex spheroid viability	IC50	> 10000 nM
O=C(c1ccc(F)c(F)c1Nc1ccc(I)cc1F)N1CC(O)([C@@H]2CCCCN2)C1 + C=CC(=O)N1CCN(c2nc(OCC3CCCN3C)nc3c(F)c(-c4nc(N)cc(C)c4C(F)(F)F)c(Cl)cc23)C(C)C1	242566-281-R-J2-PDC complex spheroid viability	IC50	260 nM
CC(C)NCC(C(=O)N1CCN(c2ncnc3c2C(C)CC3O)CC1)c1ccc(Cl)cc1 (stereo not given) + C=CC(=O)N1CCN(c2nc(OCC3CCCN3C)nc3c(F)c(-c4nc(N)cc(C)c4C(F)(F)F)c(Cl)cc23)C(C)C1	242566-281-R-J2-PDC complex spheroid viability	IC50	> 10000 nM
CC(Nc1ccc2c(c1)OCCn1cc(N3C(=O)OCC3C(F)F)nc1-2)C(N)=O (stereo not given) + C=CC(=O)N1CCN(c2nc(OCC3CCCN3C)nc3c(F)c(-c4nc(N)cc(C)c4C(F)(F)F)c(Cl)cc23)C(C)C1	242566-281-R-J2-PDC complex spheroid viability	IC50	753 nM
NC1c2ccccc2OC12CCN(c1cnc3c(N4CCCc5ncccc54)n[nH]c3n1)CC2 (stereo not given) + C=CC(=O)N1CCN(c2nc(OCC3CCCN3C)nc3c(F)c(-c4nc(N)cc(C)c4C(F)(F)F)c(Cl)cc23)C(C)C1	242566-281-R-J2-PDC complex spheroid viability	IC50	> 10000 nM
CC1(O)CCCC1n1c(=O)c(C(F)F)cc2cnc(NC3CCN(S(C)(=O)=O)CC3)nc21 (stereo not given) + C=CC(=O)N1CCN(c2nc(OCC3CCCN3C)nc3c(F)c(-c4nc(N)cc(C)c4C(F)(F)F)c(Cl)cc23)C(C)C1	242566-281-R-J2-PDC complex spheroid viability	IC50	> 10000 nM
Cc1nc(N2CCC3(CC2)COC(C)C3N)c(CO)nc1Sc1ccnc(N)c1Cl (stereo not given) + C=CC(=O)N1CCN(c2nc(OCC3CCCN3C)nc3c(F)c(-c4nc(N)cc(C)c4C(F)(F)F)c(Cl)cc23)C(C)C1	242566-281-R-J2-PDC complex spheroid viability	IC50	> 10000 nM
CC(=O)OC12COC1CC(O)C1(C)C(=O)C(O)C3=C(C)C(OC(=O)C(O)C(NC(=O)OC(C)(C)C)c4ccccc4)CC(O)(C(OC(=O)c4ccccc4)C21)C3(C)C (stereo not given) + C=CC(=O)N1CCN(c2nc(OCC3CCCN3C)nc3c(F)c(-c4nc(N)cc(C)c4C(F)(F)F)c(Cl)cc23)C(C)C1	242566-281-R-J2-PDC complex spheroid viability	IC50	< 31.6 nM
CCC(CC)c1cc(NC2CCC(N)C2)n2nccc2n1 (stereo not given) + C=CC(=O)N1CCN(c2nc(OCC3CCCN3C)nc3c(F)c(-c4nc(N)cc(C)c4C(F)(F)F)c(Cl)cc23)C(C)C1	242566-281-R-J2-PDC complex spheroid viability	IC50	4590 nM
CCc1c2c(nc3ccc(O)cc13)-c1cc3c(c(=O)n1C2)COC(=O)[C@]3(O)CC + C=CC(=O)N1CCN(c2nc(OCC3CCCN3C)nc3c(F)c(-c4nc(N)cc(C)c4C(F)(F)F)c(Cl)cc23)C(C)C1	242566-281-R-J2-PDC complex spheroid viability	IC50	31.6 nM
CC1(C)CCC(Nc2ncc(C(F)(F)F)c(-c3c[nH]c4c(P(C)(C)=O)c(C#N)ccc34)n2)CN1 (stereo not given) + C=CC(=O)N1CCN(c2nc(OCC3CCCN3C)nc3c(F)c(-c4nc(N)cc(C)c4C(F)(F)F)c(Cl)cc23)C(C)C1	242566-281-R-J2-PDC complex spheroid viability	IC50	> 300 nM
